# target_entity: T1, 6His-Fc-FGFR4 (human, UniProt P22455 144-369)
# T1 construct: not shown: 6His tag and Fc as named in '6His-Fc-FGFR'
# T1 sequence: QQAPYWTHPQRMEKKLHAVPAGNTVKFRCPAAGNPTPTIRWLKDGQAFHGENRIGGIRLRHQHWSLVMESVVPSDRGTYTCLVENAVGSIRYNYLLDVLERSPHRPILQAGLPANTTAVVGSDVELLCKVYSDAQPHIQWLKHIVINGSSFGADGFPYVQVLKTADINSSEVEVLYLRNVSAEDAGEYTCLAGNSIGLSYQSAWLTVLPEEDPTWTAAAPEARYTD
# assay_notes: competition ELISA, blocks 6His-Fc-FGFR4 binding to coated FGF2
pIC50: −log10 of the molar value.
Outcome label depends on pIC50 relative to 8: at/above gives True, below gives False.

>  <binder>
Ab27 (antibody, human IgG2, kappa, V domains shown, format in the assays not spelled out) VH: EVQLLESGGGVVQPGRSLRLSCAASGFTFSSYAMHWVRQAPGKGLEWVAVISYDGSNKYYADSVKGRFTISRDNSKNTLSLQMNSLRVEDTAIYYCVRGAGRGYTLGPDGFDIWGQGTMVTVSS VL: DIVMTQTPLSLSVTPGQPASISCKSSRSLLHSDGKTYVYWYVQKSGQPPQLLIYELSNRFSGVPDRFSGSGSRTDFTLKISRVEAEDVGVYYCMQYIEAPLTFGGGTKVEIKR

>  <assigned_label>
False

$$$$
>  <binder>
Ab51 (antibody, human IgG2, kappa, V domains shown, format in the assays not spelled out) VH: EVQLLESGGGVVQPGRSLRLSCAASGFTFSSYAMHWVRQAPGKGLEWVAVISYDGSNKYYADSVKGRFTISRDNSKNTLSLQMNSLRVEDTAIYYCVRGAGRGFPYGPDGFDIWGQGTMVTVSS VL: DIVMTQTPLSLSVTPGQPASISCRSSRSLLHSDGKTYVYWYVQKSGQPPQLLIYELSNRFSGVPDRFSGSGSRTDFTLKISRVEAEDVGVYYCMQYIEAPLTFGGGTKVEIKR

>  <assigned_label>
False

$$$$
>  <binder>
Ab40 (antibody, human IgG2, kappa, V domains shown, format in the assays not spelled out) VH: EVQLLESGGGVVQPGRSLRLSCAASGFTFSSYAMHWVRQAPGKGLEWVAVISYDGSNKYYADSVKGRFTISRDNSKNTLSLQMNSLRVEDTAIYYCVRGAGMGLTYGPDGFDIWGQGTMVTVSS VL: DIVMTQTPLSLSVTPGQPASISCRSSRSLLHSDGKTYVYWYVQKSGQPPQLLIYELSNRFSGVPDRFSGSGSRTDFTLKISRVEAEDVGVYYCMQYIEAPLTFGGGTKVEIKR

>  <assigned_label>
False

$$$$
>  <binder>
Ab68 (antibody, human IgG2, kappa, V domains shown, format in the assays not spelled out) VH: EVQLLESGGGVVQPGRSLRLSCAASGFTFSSYAMHWVRQAPGKGLEWVAVISYDGSNKYYADSVKGRFTISRDNSKNTLSLQMNSLRVEDTAIYYCVRGAGLGYPNGPDGFDIWGQGTMVTVSS VL: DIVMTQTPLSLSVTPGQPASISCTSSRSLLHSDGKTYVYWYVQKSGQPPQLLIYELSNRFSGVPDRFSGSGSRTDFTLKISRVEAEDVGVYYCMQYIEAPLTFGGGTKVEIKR

>  <assigned_label>
True

$$$$
>  <binder>
Ab31 (antibody, human IgG2, kappa, V domains shown, format in the assays not spelled out) VH: EVQLLESGGGVVQPGRSLRLSCAASGFTFSSYAMHWVRQAPGKGLEWVAVISYDGSNKYYADSVKGRFTISRDNSKNTLSLQMNSLRVEDTAIYYCVRGAGRGLTYGPDGFDIWGQGTMVTVSS VL: DIVMTQTPLSLSVTPGQPASISCTSSRSLLHSDGKTYVYWYVQKSGQPPQLLIYELSNRFSGVPDRFSGSGSRTDFTLKISRVEAEDVGVYYCMQYVEAPLTFGGGTKVEIKR

>  <assigned_label>
False

$$$$
